System: SR
Assay: NCI tumour cell line growth inhibition, 48 h
Calls of active or inactive are those of the source. No stated cut-off is given here; in the data, active = GI50 up to about 1.1 µM and inactive = higher.
Possible outcomes: YES for active, NO for inactive

>>> print(df.to_string())
                                    compound  answer_label
 0  C=C1C(=O)O[C@H]2C1C[C@@H](O)/C(C)=C/CC[C@@]1(C)O[C@H]21 (some centres not stated)            NO
 1           N[C@H](C(=O)O)[C@@H]1CC(Cl)=NO1           YES
 2  COc1ccc(OC)c(/N=C/c2cc(OC)c(OC)c(OC)c2)c1            NO
 3  N#CC12CNCC1CN=N2 (configuration not stated)            NO
 4          Cc1ccc([S@+]([O-])c2occc2C=O)cc1            NO
 5           CCOC(=O)c1cn2c(n1)sc1cc(F)ccc12            NO
 6   Cn1c(Sc2ccc(-c3cccnc3)n2C)ccc1-c1cccnc1            NO
 7            N=C(c1cccs1)C1(N2CCCCC2)CCCCC1            NO
 8             O=C(/C=C/c1ccccc1O)c1ccccc1Cl            NO
 9  CC1=C(N2CC2)C(=O)c2nc3n(c2C1=O)CCC3OC(=O)CCl (configuration not stated)           YES
10  CCNC(=O)C(O)C1(O)CCC2[C@@H]3CCC4=CC(=O)C=C[C@]4(C)C3[C@@H](O)C[C@@]21C (some centres not stated)            NO
11            CNS(=O)(=O)NNS(=O)(=O)c1ccccc1            NO
12  C=C1CC(Cn2cc(Br)c(=O)[nH]c2=O)(c2ccc(-c3ccccc3)cc2)OC1=O (configuration not stated)           YES
13  CCOC(=O)c1nc2ccccc2nc1NCc1cc(OC)c(OC)c(OC)c1            NO
14  CN(C)Cc1cc(C(=O)/C=C/c2c(Cl)cccc2Cl)cc(CN(C)C)c1O            NO
15  SC1=NC2=C(CSC/C2=C\c2ccccc2)C(c2ccccc2)N1 (configuration not stated)            NO
16  CCCCCC(C[N+]1(C)CCOCC1)C(=O)/C=C/c1ccccc1 (configuration not stated)            NO
17  CC(=O)[O-].[O-]c1c(Cl)cc(Cl)cc1/C=N/Nc1ccccn1.[Zn+2]           YES
18  C=CCOC(=O)C[C@H](NC(=O)[C@H](Cc1ccc(O)cc1)NCC(F)(F)F)C(=O)OCC=C            NO
19  O=C1/C(=C/c2ccc(Cl)cc2)CCC1CN1CCOCC1 (configuration not stated)           YES
20           CC(=O)c1csc2c1C(=O)c1ccccc1C2=O            NO
21  Cc1ccc(C)c(N2C(=O)C(=O)C(c3nc4ccccc4s3)/C(=N\c3cccc4c(=O)[nH][nH]c(=O)c34)C2=O)c1 (configuration not stated)            NO

The reported numbers originate from ChEMBL document CHEMBL1201862.
